- target-under-test: Serine/threonine-protein kinase B-raf (Homo sapiens, UniProt P15056, V600E)
- Sequence (P15056 2-766 V600E limits assumed): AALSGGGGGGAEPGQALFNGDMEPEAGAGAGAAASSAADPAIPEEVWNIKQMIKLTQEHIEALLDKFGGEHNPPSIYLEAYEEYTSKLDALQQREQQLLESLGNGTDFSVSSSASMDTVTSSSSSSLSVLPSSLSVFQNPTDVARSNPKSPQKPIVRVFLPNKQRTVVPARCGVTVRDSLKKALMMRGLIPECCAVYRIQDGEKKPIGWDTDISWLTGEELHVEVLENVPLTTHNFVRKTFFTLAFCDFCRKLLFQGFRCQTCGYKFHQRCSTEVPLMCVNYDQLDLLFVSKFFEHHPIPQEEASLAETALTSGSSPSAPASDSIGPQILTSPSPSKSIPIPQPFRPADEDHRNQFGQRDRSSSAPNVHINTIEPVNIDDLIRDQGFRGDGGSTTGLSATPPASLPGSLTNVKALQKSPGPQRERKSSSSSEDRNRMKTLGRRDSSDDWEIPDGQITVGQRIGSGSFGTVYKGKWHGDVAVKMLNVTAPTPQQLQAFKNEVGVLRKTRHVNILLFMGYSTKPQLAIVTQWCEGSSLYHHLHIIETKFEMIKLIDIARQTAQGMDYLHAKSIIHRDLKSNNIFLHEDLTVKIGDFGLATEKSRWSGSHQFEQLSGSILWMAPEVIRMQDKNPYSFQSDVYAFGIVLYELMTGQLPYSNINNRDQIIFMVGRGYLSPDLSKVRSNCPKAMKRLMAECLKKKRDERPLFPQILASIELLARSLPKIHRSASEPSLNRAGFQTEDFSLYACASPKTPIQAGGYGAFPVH
- assay: Inhibition of human BRAF V600E mutant expressed in baculovirus system
hey, just use 1.0 if measured IC50 is less than 300 nM, otherwise 0.0

[[record]]
substance_smiles = "Cc1cc(NC(=O)Nc2ccc(Oc3ccnc4[nH]c(=O)[nH]c34)cc2)n(-c2ccc(Cl)cc2)n1"
class = 1.0

[[record]]
substance_smiles = "CC(C)(C)c1cc(NC(=O)Nc2ccc(Oc3ccnc4[nH]c(=O)[nH]c34)cc2)n(-c2ccccc2)n1"
class = 1.0

[[record]]
substance_smiles = "Cn1c(=O)[nH]c2nccc(Oc3ccc(NC(=O)Nc4cc(C(C)(C)C)nn4-c4cccnc4)c4ccccc34)c21"
class = 0.0


### Prompt For this compound, is IC50 lower than 300 nM? CC(C)(C)c1cc(NC(=O)Nc2ccc(Oc3ccnc4[nH]c(=O)[nH]c34)cc2)n(-c2ccc(F)cc2)n1
### Response 1.0

### Prompt For this compound, is IC50 lower than 300 nM? Cn1c(=O)[nH]c2c(Oc3ccc(NC(=O)Nc4cc(C(C)(C)C)nn4-c4ccccc4)c4ccccc34)ccnc21
### Response 0.0

### Prompt For this compound, is IC50 lower than 300 nM? CC(C)(C)c1cc(NC(=O)Nc2ccc(Oc3ccnc4[nH]c(=O)[nH]c34)cc2)n(-c2ccccn2)n1
### Response 1.0

### Prompt For this compound, is IC50 lower than 300 nM? CC(C)(C)c1cc(NC(=O)Nc2ccc(Sc3ccnc4[nH]c(=O)[nH]c34)cc2)n(-c2ccccc2)n1
### Response 1.0

### Prompt For this compound, is IC50 lower than 300 nM? Cn1nc(C(C)(C)C)cc1NC(=O)Nc1ccc(Oc2ccnc3c2[nH]c(=O)n3C)c2ccccc12
### Response 1.0

### Prompt For this compound, is IC50 lower than 300 nM? Cc1ccc(-n2nc(C(C)(C)C)cc2NC(=O)Nc2ccc(Oc3ccnc4[nH]c(=O)n(C)c34)c3ccccc23)cc1
### Response 0.0

### Prompt For this compound, is IC50 lower than 300 nM? Cn1nc(C(C)(C)C)cc1NC(=O)Nc1ccc(Oc2ccnc3[nH]c(=O)[nH]c23)cc1
### Response 1.0

### Prompt For this compound, is IC50 lower than 300 nM? Cc1ccc(-n2nc(C(C)(C)C)cc2NC(=O)Nc2ccc(Oc3ccnc4[nH]c(=O)[nH]c34)cc2F)cc1
### Response 1.0

====

Task for the reader: assign each of the following molecules its reported Cmax.
- assay: Cmax in BALB/cAnNCrl mouse at 10 mg/kg, po
- Assay type: ADME, organism-based
- Parameters: dose 10 mg/kg, route oral
- assay-conditions: in vivo
Answers are plain numbers, in µM.

[[record]]
substance_smiles = "CC(C)(C)c1cc(NC(=O)Nc2ccc(Oc3ccnc4[nH]c(=O)[nH]c34)cc2F)n(-c2ccccc2)n1"
readout_type = "Cmax"
unit_descriptor = "µM"
recorded_measurement = 15

[[record]]
substance_smiles = "Cn1c(=O)[nH]c2nccc(Oc3ccc(NC(=O)Nc4cc(C(C)(C)C)nn4-c4cccnc4)c4ccccc34)c21"
readout_type = "Cmax"
unit_descriptor = "µM"
recorded_measurement = 4.21

[[record]]
substance_smiles = "Cc1ccc(-n2nc(C(C)(C)C)cc2NC(=O)Nc2ccc(Oc3ccnc4[nH]c(=O)n(C)c34)cc2)cc1"
readout_type = "Cmax"
unit_descriptor = "µM"
recorded_measurement = 39.6

[[record]]
substance_smiles = "Cn1c(=O)n(C)c2c(Oc3ccc(NC(=O)Nc4cc(C(C)(C)C)nn4-c4ccccc4)c(F)c3)ccnc21"
readout_type = "Cmax"
unit_descriptor = "µM"
recorded_measurement = 4.44

[[record]]
substance_smiles = "Cc1ccc(-n2nc(C(C)(C)C)cc2NC(=O)Nc2ccc(Oc3ccnc4c3n(C)c(=O)n4C)cc2F)cc1"
readout_type = "Cmax"
unit_descriptor = "µM"
recorded_measurement = 8.12

[[record]]
substance_smiles = "Cc1ccc(-n2nc(C(C)(C)C)cc2NC(=O)Nc2ccc(Oc3ccnc4[nH]c(=O)n(C)c34)c3ccccc23)cc1"
readout_type = "Cmax"
unit_descriptor = "µM"
recorded_measurement = 43.3


Dear colleague, could you please provide Cmax for the molecules listed below?
1. Cc1ccc(-n2nc(C(C)(C)C)cc2NC(=O)Nc2ccc(Oc3ccnc4[nH]c(=O)[nH]c34)cc2F)cc1
2. Cc1ccc(-n2nc(C(C)(C)C)cc2NC(=O)Nc2ccc(Oc3ccnc4c3[nH]c(=O)n4C)cc2)cc1
3. Cc1ccc(-n2nc(C(C)(C)C)cc2NC(=O)Nc2ccc(Oc3ccnc4c3[nH]c(=O)n4C)cc2F)cn1

### Response
1: 7.42; 2: 22.7; 3: 18
